method summary: self-splicing fitness, log relative to wild type (ln ratio); higher = more splicing; Tetrahymena group I intron in knt gene, E. coli kanamycin selection, DiMSum; sequences stand for … in CUCUCU…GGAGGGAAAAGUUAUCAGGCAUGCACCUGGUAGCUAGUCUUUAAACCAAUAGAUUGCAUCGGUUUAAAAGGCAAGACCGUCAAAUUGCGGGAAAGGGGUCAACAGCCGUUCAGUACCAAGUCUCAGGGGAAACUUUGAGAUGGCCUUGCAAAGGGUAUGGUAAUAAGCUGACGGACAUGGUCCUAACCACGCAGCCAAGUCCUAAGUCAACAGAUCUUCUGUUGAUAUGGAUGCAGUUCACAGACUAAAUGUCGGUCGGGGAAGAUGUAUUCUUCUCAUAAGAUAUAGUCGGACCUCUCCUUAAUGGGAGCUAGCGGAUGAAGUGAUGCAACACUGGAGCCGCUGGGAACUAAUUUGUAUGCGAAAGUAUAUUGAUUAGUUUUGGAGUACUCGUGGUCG;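 note: selection with 25 µg/mL kanamycin versus none on LB agar overnight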
test parameters: 37 °C
measure name: self-splicing fitness (ln)
Keep it simple and answer with nothing but the number.

Return reported self-splicing fitness (ln); argument: `GUUCAGCAAUAUUACGAGUC`
-0.628

// returns reported self-splicing fitness (ln) for input `UAUUAGCAAUAUUACGUAAU`
-1.93

Please look up its self-splicing fitness (ln): `GGGUAGCAAUAUUACGGUUU`
0.138

Need self-splicing fitness (ln) of `GAAGAGCAAUAUUACGCCUG` , thanks.
-0.756

Which self-splicing fitness (ln) value is on record for `GAAUAGCAAUAUUACGCUGA` ?
-0.623

Next:
Which self-splicing fitness (ln) is listed for `CAAUAGCAAUAUUACGCAAG` ?
-0.905

Would you kindly share the measured self-splicing fitness (ln) for `CCCAAGCAAUAUUACGUUCU` ?
-3.5

// returns reported self-splicing fitness (ln) for input `UAGCAGCAAUAUUACGUGUU`
-2.86

Entry `CCUCAGCAAUAUUACGCCAG` : reported self-splicing fitness (ln) = ?
-0.883

Entry under review: `CUCAAGCAAUAUUACGAUAG` . Reported self-splicing fitness (ln)?
-0.283

Entry under review: `CUAAAGCAAUAUUACGGGUA` . Reported self-splicing fitness (ln)?
-2.3

Quick one: self-splicing fitness (ln) for `AACCAGCAAUAUUACGUGAG` ?
-0.39

# lookup: self-splicing fitness (ln) of `UUUCAGCAAUAUUACGUUUC`
-2.28

# self-splicing fitness (ln) lookup, item `AAGGAGCAAUAUUACGGAGU`
-1.33

###

method summary: self-splicing fitness, log relative to wild type (ln ratio); higher = more splicing; Tetrahymena group I intron in knt gene, E. coli kanamycin selection, DiMSum; sequences stand for … in CUCUCU…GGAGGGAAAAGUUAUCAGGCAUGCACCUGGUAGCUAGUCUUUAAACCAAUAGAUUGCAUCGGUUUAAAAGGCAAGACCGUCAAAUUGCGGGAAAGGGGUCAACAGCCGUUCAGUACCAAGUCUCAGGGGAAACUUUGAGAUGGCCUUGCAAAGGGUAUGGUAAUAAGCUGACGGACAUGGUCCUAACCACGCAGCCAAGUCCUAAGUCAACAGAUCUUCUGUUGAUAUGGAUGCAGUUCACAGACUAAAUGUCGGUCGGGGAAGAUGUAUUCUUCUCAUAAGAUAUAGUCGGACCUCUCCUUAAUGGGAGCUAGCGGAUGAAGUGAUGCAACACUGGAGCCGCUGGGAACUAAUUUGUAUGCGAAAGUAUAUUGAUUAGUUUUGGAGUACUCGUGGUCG
test parameters: 30 °C
measure name: self-splicing fitness (ln)
Provide a numeric answer; units are not to be included.

Data request, read-out self-splicing fitness (ln), for `CCGAAGCAAUAUUACGGCCC`
-3.55

Next:
Could you tell me which self-splicing fitness (ln) is on file for `GUCCAGCAAUAUUACGUUCU` ?
-2.35

Can you look up the measured self-splicing fitness (ln) of `UAUAAGCAAUAUUACGCUUG` for me?
-1.75

Requested field: self-splicing fitness (ln). Item: `UCUGAGCAAUAUUACGCGAG`
-3.09

Fill blank: measured self-splicing fitness (ln) of the sequence `AAAGAGCAAUAUUACGGAAA` is ____.
-2.38

For the sequence shown here, `AAACAGCAAUAUUACGAACG` , give the reported self-splicing fitness (ln).
-2.5

Fill blank: measured self-splicing fitness (ln) of the sequence `GCCAAGCAAUAUUACGACAU` is ____.
-2.36

What value of self-splicing fitness (ln) has been reported for the following sequence? `UUACAGCAAUAUUACGACGC`
0.421

###

method summary: self-splicing fitness, log relative to wild type (ln ratio); higher = more splicing; Tetrahymena group I intron in knt gene, E. coli kanamycin selection, DiMSum; sequences stand for … in CUCUCU…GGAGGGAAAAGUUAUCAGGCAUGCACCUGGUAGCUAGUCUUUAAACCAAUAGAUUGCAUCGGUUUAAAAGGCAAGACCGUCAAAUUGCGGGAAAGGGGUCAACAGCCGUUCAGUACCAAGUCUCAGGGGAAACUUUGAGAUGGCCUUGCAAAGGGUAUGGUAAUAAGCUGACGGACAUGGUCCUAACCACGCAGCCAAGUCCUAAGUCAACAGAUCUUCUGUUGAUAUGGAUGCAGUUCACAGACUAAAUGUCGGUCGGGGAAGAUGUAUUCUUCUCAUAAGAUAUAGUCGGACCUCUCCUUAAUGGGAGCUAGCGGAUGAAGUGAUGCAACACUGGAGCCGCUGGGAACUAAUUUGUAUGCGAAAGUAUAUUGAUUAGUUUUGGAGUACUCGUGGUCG
test parameters: 30 °C
measure name: self-splicing fitness (ln)
Form rule: numeric answer, no unit written next to it.

Example entries and their recorded answers appear below.
Please report the recorded self-splicing fitness (ln) for `AGCGAGCAAUAUUACGCGGA` .
-3.21

self-splicing fitness (ln) lookup needed for `AAUUAGCAAUAUUACGUGAU` , thanks.
-1.87

Fill blank: measured self-splicing fitness (ln) of the sequence `CGAUAGCAAUAUUACGAGAU` is ____.
-4.01

# self-splicing fitness (ln) lookup, item `AAAGAGCAAUAUUACGCCUG`
-2.57

GET /values?readout=self-splicing fitness (ln)&item= `UAAAAGCAAUAUUACGCAUC`
-2.95

***
What does the data say about its self-splicing fitness (ln)? Entry: `UAACAGCAAUAUUACGGGGC`
-3.63

Return reported self-splicing fitness (ln); argument: `GCGAAGCAAUAUUACGUGGG`
-3.87

Look at this sequence and give its reported self-splicing fitness (ln). `GAUCAGCAAUAUUACGCCGG`
-1.75

What does the record list as self-splicing fitness (ln) for `GGUUAGCAAUAUUACGUGCG` ?
-0.0643

Looking for the measured self-splicing fitness (ln) of `AAACAGCAAUAUUACGGAUG` , can you help?
-3.43

Tell me the measured self-splicing fitness (ln) of `CUCAAGCAAUAUUACGCAUA` , please.
-3.29

Requested field: self-splicing fitness (ln). Item: `CGAGAGCAAUAUUACGGGCA`
-3.47

Would you kindly share the measured self-splicing fitness (ln) for `GGGCAGCAAUAUUACGACAG` ?
-2.72

Entry under review: `AAAGAGCAAUAUUACGGGUA` . Reported self-splicing fitness (ln)?
-2.81

Data request, read-out self-splicing fitness (ln), for `GAAGAGCAAUAUUACGGCGC`
-1.12

// self-splicing fitness (ln) lookup, key: `AGCGAGCAAUAUUACGUCCA`
-2.59

###

method summary: self-splicing fitness, log relative to wild type (ln ratio); higher = more splicing; Tetrahymena group I intron in knt gene, E. coli kanamycin selection, DiMSum; sequences stand for … in CUCUCU…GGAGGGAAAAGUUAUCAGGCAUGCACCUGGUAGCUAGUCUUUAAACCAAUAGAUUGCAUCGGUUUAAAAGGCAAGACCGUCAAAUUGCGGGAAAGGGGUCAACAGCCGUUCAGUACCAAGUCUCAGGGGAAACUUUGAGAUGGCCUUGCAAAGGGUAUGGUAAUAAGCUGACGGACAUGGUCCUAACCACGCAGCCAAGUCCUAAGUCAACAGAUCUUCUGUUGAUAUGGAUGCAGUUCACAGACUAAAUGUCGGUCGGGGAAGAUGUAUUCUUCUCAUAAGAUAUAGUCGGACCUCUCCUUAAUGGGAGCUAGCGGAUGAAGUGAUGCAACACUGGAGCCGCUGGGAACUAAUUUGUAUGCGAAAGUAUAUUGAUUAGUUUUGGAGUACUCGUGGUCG
test parameters: 37 °C
Label Met when self-splicing fitness (ln) is at or above -1; otherwise label Not met.

Is reported self-splicing fitness (ln) greater than or equal to -1 here: `GGCCAGCAAUAUUACGGAUG`
Met

Say whether `GGACAGCAAUAUUACGACGU` shows self-splicing fitness (ln) of -1 or more.
Met

Does the sequence `UCACAGCAAUAUUACGCUAC` have recorded self-splicing fitness (ln) that is -1 or more?
Not met

Does the reported self-splicing fitness (ln) for `UGUAAGCAAUAUUACGGAUG` fall at or above the -1 mark?
Met

Please indicate if the recorded self-splicing fitness (ln) for `CGCUAGCAAUAUUACGGCAG` meets or exceeds -1.
Met

Hi team, for `CGUUAGCAAUAUUACGAUGA` , is the recorded self-splicing fitness (ln) at or above -1?
Met

Answer whether self-splicing fitness (ln) of `AUAAAGCAAUAUUACGUCCU` is greater than or equal to -1.
Met

For this sequence, is measured self-splicing fitness (ln) -1 or higher? `UGACAGCAAUAUUACGUGGA`
Not met

Would you say `ACGUAGCAAUAUUACGUCCA` shows self-splicing fitness (ln) at minimum -1?
Not met

Entry `AGAAAGCAAUAUUACGGCCC` : is its self-splicing fitness (ln) no less than -1?
Met

---
Test whether the sequence `CUAAAGCAAUAUUACGGAAU` records self-splicing fitness (ln) of -1 or higher.
Not met
